molecular target: RPS6KA4 KD2 (human) (UniProt O75676); assay: KINOMEscan competition binding; conditions: compound 10.0 µM
Sequence (O75676 whole entry, looked up): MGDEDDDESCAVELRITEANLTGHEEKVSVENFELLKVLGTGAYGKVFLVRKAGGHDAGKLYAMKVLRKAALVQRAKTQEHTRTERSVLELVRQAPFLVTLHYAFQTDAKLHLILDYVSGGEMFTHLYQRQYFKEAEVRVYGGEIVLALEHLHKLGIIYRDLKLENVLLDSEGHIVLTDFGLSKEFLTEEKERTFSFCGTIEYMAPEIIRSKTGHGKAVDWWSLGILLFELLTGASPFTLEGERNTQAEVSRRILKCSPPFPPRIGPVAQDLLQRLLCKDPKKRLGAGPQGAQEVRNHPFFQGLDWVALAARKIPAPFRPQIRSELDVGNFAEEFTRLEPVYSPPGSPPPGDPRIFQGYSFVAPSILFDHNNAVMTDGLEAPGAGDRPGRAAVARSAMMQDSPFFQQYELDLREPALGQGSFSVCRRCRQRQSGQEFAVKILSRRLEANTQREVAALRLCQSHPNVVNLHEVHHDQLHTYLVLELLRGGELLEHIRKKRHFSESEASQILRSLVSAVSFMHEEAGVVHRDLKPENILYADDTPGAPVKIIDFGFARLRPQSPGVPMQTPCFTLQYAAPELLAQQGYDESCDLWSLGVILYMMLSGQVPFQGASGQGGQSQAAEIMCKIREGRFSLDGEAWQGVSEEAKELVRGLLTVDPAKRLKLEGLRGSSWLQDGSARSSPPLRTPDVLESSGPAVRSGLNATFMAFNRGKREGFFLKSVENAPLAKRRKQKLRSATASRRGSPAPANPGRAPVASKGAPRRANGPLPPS
REPORTED METRIC: kinase still bound, per cent of control (%)
# unit: % | format: bare number

Solved cases below.
N=C1NC(=O)/C(=C/c2ccc(-c3ccc(C(=O)Nc4ccc(N5CCNCC5)cc4)cc3O)o2)S1	3.4
COc1cc(N2CCN(C)CC2)ccc1Nc1ncc2c(n1)N(C)c1ccccc1N(C)C2=O	88
COc1cc(N2CCN(C)CC2)ccc1Nc1ncc2c(n1)Nc1ccccc1NC2=O	31
CS(=O)C1=NC(=O)/C(=C/c2ccc(-c3ccc(S(N)(=O)=O)cc3)o2)S1 (centres undefined)	18
CS(=O)(=O)Nc1ccc(-c2ccc(/C=C3\SC(=N)NC3=O)o2)cc1	13
CC(C)Oc1cc(N2CCC(O)CC2)ccc1Nc1ncc2c(n1)N1CCC[C@H]1CC(=O)N2C	32
O=C1NC(=O)/C(=C/c2ccc(-c3ccc(F)cc3O)o2)S1	22
CCN(CC)C1CCN(c2ccc(Nc3ncc4c(n3)N3CCCC3C=CN4C)c(OC(C)C)c2)CC1 (centres undefined)	1.9

Let us move to another entry and its kinase still bound, per cent of control.
In: Given the compound "CSC1=NC(=O)/C(=C/c2c[nH]c(=O)c(-c3ccc(NS(C)(=O)=O)cc3)c2)S1" , write its reported kinase still bound, per cent of control.
Out: 0.15
